- subject of test: UniProtKB P52293
- protocol summary: Direct fluorescence polarisation (FP) binding assay
- condition description: 60 nM TAMRA-labelled peptide, 15-point 2.0-fold serial dilutions of mImportin α1 ΔIBB, 20 mM HEPES pH 8, 200 mM NaCl, 15 min at room temperature, ex 540/em 590 nm, one-site model, triplicates, read-out: Kd, direct FP assay binding affinity

smi | Kd / µM
CSCC[C@@H]1NC(=O)[C@H](CCCCN)NC(=O)[C@H](CCCCN)NC(=O)[C@@H](NC(=O)[C@@H](NC(=O)CCCCCNC(=O)c2ccc3c(c2)C(=O)OC32c3ccc(N(C)C)cc3Oc3cc(N(C)C)ccc32)[C@@H](C)O)CCn2cc(nn2)CNC(=O)NCc2cn(nn2)CC[C@@H](C(=O)N[C@@H](CCCNC(=N)N)C(N)=O)NC(=O)[C@H](CCCNC(=N)N)NC(=O)[C@H](CCCNC(=N)N)NC1=O | 4.54
CSCC[C@@H]1NC(=O)[C@H](CCCCN)NC(=O)[C@H](CCCCN)NC(=O)[C@@H](NC(=O)[C@@H](NC(=O)CCCCCNC(=O)c2ccc3c(c2)C(=O)OC32c3ccc(N(C)C)cc3Oc3cc(N(C)C)ccc32)[C@@H](C)O)Cn2cc(nn2)CCNC(=O)NCCc2cn(nn2)C[C@@H](C(=O)N[C@@H](CCCNC(=N)N)C(N)=O)NC(=O)[C@H](CCCNC(=N)N)NC(=O)[C@H](CCCNC(=N)N)NC1=O | 48.2

* * *

- subject of test: mImportin α1 ΔIBB (Mus musculus)
- protocol summary: Direct fluorescence polarisation (FP) binding assay
- condition description: 60 nM TAMRA-labelled peptide, 15-point 2.0-fold serial dilutions of mImportin α1 ΔIBB, 20 mM HEPES pH 8, 200 mM NaCl, 15 min at room temperature, ex 540/em 590 nm, one-site model, triplicates, read-out: Kd, direct FP assay binding affinity
Non-standard residues stand in square brackets, D forms with d. Residues, ends and D or L forms follow the SMILES beside them. *: point of attachment. 5TAMRA = CN(C)c1ccc2c(c1)Oc1cc(N(C)C)ccc1C21OC(=O)c2cc(C(=O)*)ccc21; Aha = [N-]=[N+]=NCC[C@H](N)C(=O)O; Ahx = NCCCCCC(=O)O

compound | Kd, µM
CSCC[C@H](NC(=O)[C@H](CCCCN)NC(=O)[C@H](CCCCN)NC(=O)[C@H](CCN=[N+]=[N-])NC(=O)[C@@H](NC(=O)CCCCCNC(=O)c1ccc2c(c1)C(=O)OC21c2ccc(N(C)C)cc2Oc2cc(N(C)C)ccc21)[C@@H](C)O)C(=O)N[C@@H](CCCNC(=N)N)C(=O)N[C@@H](CCCNC(=N)N)C(=O)N[C@@H](CCN=[N+]=[N-])C(=O)N[C@@H](CCCNC(=N)N)C(N)=O [Pep2] ({5TAMRA-Ahx}-T[Aha]KKMRR[Aha]R-NH2) | 6.84

Cited source: paper PMC5291322
